molecular target: hRORγ LBD (Homo sapiens, UniProt P51449); construct: His tag (N, cleaved yes); made in house; host or cells: Escherichia coli BL21 DE3; assay: Thermal stability by nano differential scanning fluorimetry (nanoDSF); type: binding; conditions: RORγ-LBD with 4 equiv ligand vs without ligand; mean ± SD
Sequence (P51449 264-518): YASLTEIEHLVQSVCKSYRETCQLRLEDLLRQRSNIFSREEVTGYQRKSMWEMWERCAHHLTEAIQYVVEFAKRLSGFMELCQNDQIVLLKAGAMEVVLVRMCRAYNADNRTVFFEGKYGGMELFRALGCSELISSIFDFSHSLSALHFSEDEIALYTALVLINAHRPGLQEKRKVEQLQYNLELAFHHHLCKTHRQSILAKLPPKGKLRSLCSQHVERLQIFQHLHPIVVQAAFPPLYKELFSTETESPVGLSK
We use 6 °C as the dividing line for ΔTm measured with nano differential scanning fluorimetry: on or above the line is label 1, below is label 0.

{"Molecule": "C=C(C)[C@@H]1CC[C@]2(C(=O)O)CC[C@]3(C)[C@H](CC[C@@H]4[C@@]5(C)CC[C@H](O)C(C)(C)[C@@H]5CC[C@]43C)[C@@H]12 [Betulinic acid, reference compound]", "System Name": "hRORγ LBD (Homo sapiens, UniProt P51449)", "Group": "label 1"}
{"Molecule": "C=C(C)[C@@H]1CC[C@]2(C(=O)O)CC[C@]3(C)[C@H](CC[C@@H]4[C@@]5(C)C/C(=C/c6cccc(I)c6)C(=O)C(C)(C)[C@@H]5CC[C@]43C)[C@@H]12 [Compound 15.2]", "System Name": "hRORγ LBD (Homo sapiens, UniProt P51449)", "Group": "label 0"}
{"Molecule": "C=C(C)[C@@H]1CC[C@]2(C(=O)OC)CC[C@]3(C)[C@H](CC[C@@H]4[C@@]5(C)C/C(=C/c6ccco6)C(=O)C(C)(C)[C@@H]5CC[C@]43C)[C@@H]12 [Compound 15.4]", "System Name": "hRORγ LBD (Homo sapiens, UniProt P51449)", "Group": "label 0"}
{"Molecule": "C=C(C)[C@@H]1CC[C@]2(C(=O)O)CC[C@]3(C)[C@H](CC[C@@H]4[C@@]5(C)C/C(=C/c6ccco6)C(=O)C(C)(C)[C@@H]5CC[C@]43C)[C@@H]12 [Compound 15]", "System Name": "hRORγ LBD (Homo sapiens, UniProt P51449)", "Group": "label 1"}

Could you now consider this next molecule?
Query: In plain terms: is recorded ΔTm measured with nano differential scanning fluorimetry at least 6 °C for C=C(C)[C@@H]1CC[C@]2(C(=O)O)CC[C@]3(C)[C@H](CC[C@@H]4[C@@]5(C)C/C(=C/c6ccccc6)C(=O)C(C)(C)[C@@H]5CC[C@]43C)[C@@H]12 [Compound 15.3] ?
Reply: label 0
